Below are pIC50 measurements against NUAK1 (Homo sapiens, UniProt O60285) drawn from the literature.
Sequence (O60285 whole entry): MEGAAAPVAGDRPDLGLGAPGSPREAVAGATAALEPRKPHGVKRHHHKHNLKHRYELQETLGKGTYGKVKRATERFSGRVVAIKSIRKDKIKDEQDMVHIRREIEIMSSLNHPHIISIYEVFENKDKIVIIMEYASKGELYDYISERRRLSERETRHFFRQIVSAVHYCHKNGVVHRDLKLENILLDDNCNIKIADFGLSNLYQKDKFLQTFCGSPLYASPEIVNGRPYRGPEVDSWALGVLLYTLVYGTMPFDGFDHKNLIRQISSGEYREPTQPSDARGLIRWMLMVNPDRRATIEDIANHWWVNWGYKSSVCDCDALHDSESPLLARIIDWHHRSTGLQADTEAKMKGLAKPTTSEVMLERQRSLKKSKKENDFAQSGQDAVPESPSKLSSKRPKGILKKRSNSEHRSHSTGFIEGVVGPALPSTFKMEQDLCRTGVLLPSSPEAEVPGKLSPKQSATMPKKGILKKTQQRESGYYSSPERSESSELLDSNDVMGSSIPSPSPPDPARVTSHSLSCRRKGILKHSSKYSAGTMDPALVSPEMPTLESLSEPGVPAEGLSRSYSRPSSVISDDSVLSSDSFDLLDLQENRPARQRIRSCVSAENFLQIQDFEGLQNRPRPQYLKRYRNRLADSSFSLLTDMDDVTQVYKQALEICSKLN
pIC50: −log10 of the molar value.

O=C1NCc2cccc(Nc3nc(Nc4ccc(N5CCC(N6CCNCC6)CC5)cc4OC(F)F)ncc3Cl)c21 = 7.00 to 7.96
Fc1cccc(-c2ccc3c(c2)N=C(c2c(F)cccc2F)Nc2c[nH]nc2-3)c1 = 7.00 to 8.00
CCN1CCN(C2CCN(c3ccc(Nc4ncc(Cl)c(Nc5cccc6c5C(=O)NC6)n4)c(OC(F)F)c3)CC2)CC1 = 7.00 to 7.96
N#Cc1cccc(F)c1-n1cc(Nc2ccc(C(=O)N3CCOCC3)cc2)c(C(N)=O)n1 = 6.00 to 7.00
O=C1NCc2cccc(Nc3nc(Nc4ccc(N5C[C@H]6C[C@@H]5CN6)cc4OC(F)F)ncc3Cl)c21 = 7.00 to 7.96

Query: # value lookup — system NUAK1 (Homo sapiens, UniProt O60285), readout pIC50, item Fc1cc2c(cc1OC1CCOCC1)N=C(c1c(F)cccc1F)Nc1c[nH]nc1-2
Result: 6.00 to 7.00

Query: # value lookup — system NUAK1 (Homo sapiens, UniProt O60285), readout pIC50, item CC(C)N1CCN(C2CCN(c3ccc(Nc4ncc(C(F)(F)F)c(Nc5cccc6c5C(=O)NC6)n4)c(OC(F)F)c3)CC2)CC1
Result: 7.00 to 7.96

Query: # value lookup — system NUAK1 (Homo sapiens, UniProt O60285), readout pIC50, item Cc1ccc2c(c1)-c1n[nH]cc1NC(c1c(F)cccc1C(F)(F)F)=N2
Result: 6.00 to 7.00

Query: # value lookup — system NUAK1 (Homo sapiens, UniProt O60285), readout pIC50, item Fc1ccc2c(c1)-c1n[nH]cc1NC(c1c(F)cc(OC(F)(F)F)cc1F)=N2
Result: 6.00 to 7.00

Query: # value lookup — system NUAK1 (Homo sapiens, UniProt O60285), readout pIC50, item Fc1cc2c(cc1-c1cccnn1)N=C(c1c(F)cccc1Cl)Nc1c[nH]nc1-2
Result: 7.00 to 8.00

Query: # value lookup — system NUAK1 (Homo sapiens, UniProt O60285), readout pIC50, item O=C(O)c1ccc2c(c1)N=C(c1c(F)cccc1F)Nc1cn[nH]c1-2
Result: 7.00 to 8.00

Query: # value lookup — system NUAK1 (Homo sapiens, UniProt O60285), readout pIC50, item NC(=O)c1nn(-c2c(F)cccc2Cl)cc1Nc1ccc(C(=O)N2CC3(CCC3)C2)cc1
Result: 6.00 to 7.00

Query: # value lookup — system NUAK1 (Homo sapiens, UniProt O60285), readout pIC50, item Cc1c(N2CCN(C)CC2)ccc(Nc2ncc(Cl)c(Nc3cccc4c3C(=O)NC4)n2)c1Cl
Result: 7.00 to 7.96

Query: # value lookup — system NUAK1 (Homo sapiens, UniProt O60285), readout pIC50, item NC(=O)c1nn(-c2c(Cl)cccc2Cl)cc1Nc1ccc(-c2nncn2C2CCCC2)cc1
Result: 6.00 to 7.00

Query: # value lookup — system NUAK1 (Homo sapiens, UniProt O60285), readout pIC50, item N#Cc1cn(C2COC2)c(-c2ccc(Nc3cn(-c4c(Cl)cccc4Cl)nc3C(N)=O)cc2)n1
Result: 6.00 to 7.00

Query: # value lookup — system NUAK1 (Homo sapiens, UniProt O60285), readout pIC50, item CCN(CC)CCOc1ccc(Nc2ncc(Cl)c(Nc3cccc4c3C(=O)NC4)n2)cc1
Result: 8.00 to 10.00

Query: # value lookup — system NUAK1 (Homo sapiens, UniProt O60285), readout pIC50, item CC(C)(C)NC(=O)c1ccc(Nc2cn(-c3c(F)cccc3Cl)nc2C(N)=O)cc1
Result: 6.00 to 7.00

Query: # value lookup — system NUAK1 (Homo sapiens, UniProt O60285), readout pIC50, item COc1c(Nc2ncc(C(F)(F)F)c(Nc3cccc4c3C(=O)NC4)n2)ccc(N2CCC(N3CCN(C)CC3)CC2)c1F
Result: 7.00 to 7.96
